- target or test system: MDM2‒P53 (Homo sapiens)
measured property: Ki (nM)
Return type: number; implicit unit nM.

{"molecule": "CCOc1cc(C(C)(C)C)ccc1C1=N[C@@H](c2ccc(Cl)cc2)[C@@H](c2ccc(Cl)cc2)N1C(=O)N1CCN(CC(=O)NCCOCCOCCNC(=O)CN2CCN(C(=O)N3C(c4ccc(C(C)(C)C)cc4OCC)=N[C@@H](c4ccc(Cl)cc4)[C@H]3c3ccc(Cl)cc3)CC2=O)C(=O)C1 (relative stereo) [Compound 11b]", "Ki, nM": 1800}
{"molecule": "CCOc1cc(C(C)(C)C)ccc1C1=N[C@@H](c2ccc(Cl)cc2)[C@@H](c2ccc(Cl)cc2)N1C(=O)N1CCN(C(=O)COCCOCCOCC(=O)N2CCN(C(=O)N3C(c4ccc(C(C)(C)C)cc4OCC)=N[C@@H](c4ccc(Cl)cc4)[C@H]3c3ccc(Cl)cc3)CC2)CC1 (relative stereo) [Compound 10f]", "Ki, nM": 220}

Next molecule, Ki to be filled in.
Form field Ki, entry CCOc1cc(C(C)(C)C)ccc1C1=N[C@@H](c2ccc(Cl)cc2)[C@@H](c2ccc(Cl)cc2)N1C(=O)N1CCN(C(=O)CCCCCCCC(=O)N2CCN(C(=O)N3C(c4ccc(C(C)(C)C)cc4OCC)=N[C@@H](c4ccc(Cl)cc4)[C@H]3c3ccc(Cl)cc3)CC2)CC1 (relative stereo) [Compound 10b] : 1600
